target: Opioid receptor (Rattus norvegicus, UniProt P33533+P34975+P33535); assay: Compound was tested for its ability to displace [3H]naloxone from Opioid receptors in absence of NaCl; assay type: protein assay
assay_metric: IC50 (nM)
Answers are plain numbers, in nM.

Some entries whose results are on file:
compound | IC50 (nM)
CCC1C2Cc3ccc(O)cc3C1(CC)CCN2C(=O)C(N)CC(C)C (stereo unspecified) | 1503
CCC1C2Cc3ccc(O)cc3C1(CC)CCN2C(=O)C(N)CCSC.Cl (stereo unspecified) | 301
CCC1C2Cc3ccc(O)cc3C1(CC)CCN2C(=O)CN.Cl (stereo unspecified) | 287
CCC1C2Cc3ccc(O)cc3C1(CC)CCN2C(=O)C(N)CCCN=C(N)N.Cl (stereo unspecified) | 15.5

Below: the item to evaluate.
response.value for CCC1C2Cc3ccc(O)cc3C1(CC)CCN2C(=O)C(N)Cc1ccccc1.Cl (stereo in doubt; 2d) (field: IC50) = 1540

* * *

target: Opioid receptor (Rattus norvegicus, UniProt P33533+P34975+P33535); assay: Compound was tested for its ability to displace [3H]naloxone from Opioid receptors in presence of NaCl (100 mM); assay type: protein assay
Please provide measured log10 IC50 for the entries that follow.
Please be aware that the numbers have been log10-transformed from IC50 in µM.

molecule | log10 IC50
CCC1C2Cc3ccc(O)cc3C1(CC)CCN2C(=O)C(N)CCSC.Cl (stereo unspecified) | 0.75
CCC1C2Cc3ccc(O)cc3C1(CC)CCN2C(=O)C(N)Cc1ccccc1.Cl (stereo in doubt; 2d) | 0.53

Each molecule below has a reported value. Please supply its log10 IC50.
1. CCC1C2Cc3ccc(O)cc3C1(CC)CCN2C(=O)C(N)CCCN=C(N)N.Cl (stereo unspecified)
2. CCC1C2Cc3ccc(O)cc3C1(CC)CCN2C(=O)CN.Cl (stereo unspecified)
3. CCC1C2Cc3ccc(O)cc3C1(CC)CCN2C(=O)C(N)CC(C)C (stereo unspecified)

1. -0.18
2. 0.91
3. 0.81
